System: HCT-116 (Colon)
Assay: NCI Developmental Therapeutics antiproliferative assay, HCT-116
Assay type: cell-based, human
Settings: Homo sapiens; HCT-116; 50% growth inhibition; read-out: Cytotoxicity (GI50) Colon HCT-116

# molecule, tested_system, unit_symbol, GI50
measured = [
    ("O=C1c2ccccc2-c2c1c1ccc([N+](=O)[O-])cc1c(=O)n2C[C@H](O)[C@@H](O)[C@H](O)[C@H](O)CO", "HCT-116 (Colon)", "µM", 5.08),
    ("O=C1c2ccccc2-c2c1c1ccccc1c(=O)n2CC(O)CO (racemic) [Compound 12c]", "HCT-116 (Colon)", "µM", 4.36),
    ("O=C(CO)Cn1c2c(c3ccccc3c1=O)C(=O)c1ccccc1-2", "HCT-116 (Colon)", "µM", 30.9),
    ("O=C1c2ccccc2-c2c1c1ccccc1c(=O)n2C[C@@H](O)CO [Compound 12b]", "HCT-116 (Colon)", "µM", 4.47),
]
